Reported protein stability index by item:
# System: Saccharomyces cerevisiae
# procedure_details: protein stability index of tFT-peptide fusion (C-terminal peptide) (PSI (0-1 scale)); higher = more stable (slower turnover)
# settings: genetic background: wild type; temperature: 30 C
Number only, please.

1) AYPWWLILSDAI	0.759
2) GRIPELVWWLDD	0.76
3) CSFHPSSVSLYS	0.555

Exercise: Reported protein stability index for Saccharomyces cerevisiae, given "GVSGGFVGSSGG" ?
Key: 0.62

Exercise: Reported protein stability index for Saccharomyces cerevisiae, given "FLSFIADVTGKR" ?
Key: 0.707

Exercise: Reported protein stability index for Saccharomyces cerevisiae, given "KKKKKEEKKNDK" ?
Key: 0.721

Exercise: Reported protein stability index for Saccharomyces cerevisiae, given "SRSYNSPSLYVC" ?
Key: 0.147

Exercise: Reported protein stability index for Saccharomyces cerevisiae, given "PPPPPPLSPSPP" ?
Key: 0.756

Exercise: Reported protein stability index for Saccharomyces cerevisiae, given "GESIIQTCLNSI" ?
Key: 0.845

Exercise: Reported protein stability index for Saccharomyces cerevisiae, given "PPPHPLPPLPAT" ?
Key: 0.744

Exercise: Reported protein stability index for Saccharomyces cerevisiae, given "GPYDLPCLPLSA" ?
Key: 0.633

----------
# System: Saccharomyces cerevisiae
# procedure_details: protein stability index of tFT-peptide fusion (C-terminal peptide) (PSI (0-1 scale)); higher = more stable (slower turnover)
# settings: genetic background: das1 deletion; temperature: 30 C
metric: protein stability index
Number only, please.

Use the examples below as a reference point.
1. VAFFKAVGATIM [YOR146W C-terminal 12 aa]	0.625
2. FTPSNQSHGNFY [TEC1 C-terminal 12 aa]	0.718
3. NDSDGTILIPDI [ZDS2 C-terminal 12 aa]	0.698

Exercise: Reported protein stability index for Saccharomyces cerevisiae, given CLCLINLCCDVF [YDR034W-B C-terminal 12 aa] ?
Key: 0.267

Exercise: Reported protein stability index for Saccharomyces cerevisiae, given KTYIKNDVEIFN [HBN1 C-terminal 12 aa] ?
Key: 0.715

Exercise: Reported protein stability index for Saccharomyces cerevisiae, given ILELPHVVSDLF [SDT1 C-terminal 12 aa] ?
Key: 0.713

Exercise: Reported protein stability index for Saccharomyces cerevisiae, given GYCKVHPVSDSK [ASI1 C-terminal 12 aa] ?
Key: 0.706

Exercise: Reported protein stability index for Saccharomyces cerevisiae, given INRRQTPLQSNA [CDC39 C-terminal 12 aa] ?
Key: 0.7

Exercise: Reported protein stability index for Saccharomyces cerevisiae, given NILPMTYLLKKK [DPI34 C-terminal 12 aa] ?
Key: 0.697

----------
# System: Saccharomyces cerevisiae
# procedure_details: protein stability index of tFT-peptide fusion (C-terminal peptide) (PSI (0-1 scale)); higher = more stable (slower turnover)
# settings: genetic background: wild type; temperature: 30 C
Reported protein stability index by item:
Number only, please.

1) FLVNVIRSCKGE	0.685
2) KKNYNTKLTQHP	0.683
3) EKVGAGVRLAWN	0.695
4) WRMGCSVRGVVG	0.693
5) GSGTGRWPGYGS	0.718
6) VGVSGCVLWYRV	0.692
7) LPPPSPLPNSPL	0.716
8) WGFGRCELMLGS	0.708
9) VGIFSLLRCRGE	0.701

Exercise: Reported protein stability index, sequence "VCVSRGPGTSDA" : ____
Key: 0.685
